target: tetanus neurotoxin (TeNT), authentic tetanus holotoxin (Clostridium tetani, UniProt P04958 2-1315); experiment: bridging ELISA: coated TeNT, SDA, biotinylated TeNT, StrepPO (bivalent binding)
Sequence (P04958 2-457 limits assumed, chain 1 of 2): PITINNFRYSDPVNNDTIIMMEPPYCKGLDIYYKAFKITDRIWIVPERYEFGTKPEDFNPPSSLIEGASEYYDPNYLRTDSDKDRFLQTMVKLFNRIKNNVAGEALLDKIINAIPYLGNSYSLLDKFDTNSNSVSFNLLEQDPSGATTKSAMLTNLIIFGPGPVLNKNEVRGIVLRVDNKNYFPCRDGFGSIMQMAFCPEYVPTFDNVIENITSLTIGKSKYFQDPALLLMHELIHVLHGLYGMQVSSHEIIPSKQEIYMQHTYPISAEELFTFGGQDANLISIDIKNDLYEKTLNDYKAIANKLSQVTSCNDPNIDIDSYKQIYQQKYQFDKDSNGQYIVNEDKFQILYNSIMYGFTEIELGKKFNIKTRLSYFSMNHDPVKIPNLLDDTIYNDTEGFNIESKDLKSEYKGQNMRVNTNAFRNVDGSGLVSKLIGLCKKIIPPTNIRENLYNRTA
Sequence (P04958 458-1315 limits assumed, chain 2 of 2): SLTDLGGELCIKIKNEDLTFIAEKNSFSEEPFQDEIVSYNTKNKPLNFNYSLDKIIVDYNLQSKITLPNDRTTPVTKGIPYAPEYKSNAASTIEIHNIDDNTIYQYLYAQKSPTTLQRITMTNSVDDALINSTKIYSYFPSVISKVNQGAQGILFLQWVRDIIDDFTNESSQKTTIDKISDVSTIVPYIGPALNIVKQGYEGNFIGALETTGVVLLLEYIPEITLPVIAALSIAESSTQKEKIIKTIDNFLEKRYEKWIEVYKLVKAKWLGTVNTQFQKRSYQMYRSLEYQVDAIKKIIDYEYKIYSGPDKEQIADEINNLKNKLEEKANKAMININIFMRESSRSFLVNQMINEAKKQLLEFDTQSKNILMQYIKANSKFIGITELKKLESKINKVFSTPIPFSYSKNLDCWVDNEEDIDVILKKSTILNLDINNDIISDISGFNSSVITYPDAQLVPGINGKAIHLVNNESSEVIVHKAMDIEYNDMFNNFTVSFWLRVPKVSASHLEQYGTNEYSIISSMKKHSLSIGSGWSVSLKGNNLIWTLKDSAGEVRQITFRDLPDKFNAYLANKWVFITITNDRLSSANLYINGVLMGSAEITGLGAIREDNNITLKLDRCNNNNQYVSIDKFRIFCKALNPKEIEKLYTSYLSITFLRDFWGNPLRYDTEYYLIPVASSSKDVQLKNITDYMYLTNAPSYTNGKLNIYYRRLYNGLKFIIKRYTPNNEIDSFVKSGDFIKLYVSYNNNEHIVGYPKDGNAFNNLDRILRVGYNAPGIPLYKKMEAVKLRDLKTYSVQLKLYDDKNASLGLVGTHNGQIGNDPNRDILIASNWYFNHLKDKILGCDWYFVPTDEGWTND
reported_metric: maximal absorbance value (A450)
State just the number; it will be interpreted in A450.

Read off the recorded maximal absorbance value for SVT16L (VHH) VHH: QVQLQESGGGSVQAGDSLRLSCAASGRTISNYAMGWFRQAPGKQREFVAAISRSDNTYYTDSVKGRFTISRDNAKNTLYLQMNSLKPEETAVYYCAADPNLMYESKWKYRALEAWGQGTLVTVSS 0.18

Read off the recorded maximal absorbance value for SVT02-GS2-SVG13M4-H6 (bispecific antibody) QVQLQQSGGGSVQAGGSLRLSCVGPQRTFSTYGMGWFRQAPGKEREFVAGINYKGDTTYYADSVKGRFTISRDNAKNTLYLQMDSLKPEDRAVYQCARKGGLGGDYRDAGQYRYWGQGTQVTVSSGGGGSGGGSEVQLVESGGGLVQPGGSLRLSCEASGFTFDDYGMSWVRQAPGKGLEWVSSLTPNGGSTYYADSVKGRFTISRDNAKNTLYLQMNSLKPEDTALYYCAKNSYYGAMDYWGQGTQVTVSSHHHHHH 0.19

Read off the recorded maximal absorbance value for SVT15-3FW4M-GS2-SVG13M4-H6 (bispecific antibody) QVQLQESGGGLVQTGGSLRLSCRASGRAFANYHFGWFRQAPGKDREFVASISWKGGSTYYANFALGRFTSSVDRAESSVYLQMSGLTPEDTATYYCAAHDGGDWNYHTGMDYWGQGTQVTVSSGGGGSGGGSEVQLVESGGGLVQPGGSLRLSCEASGFTFDDYGMSWVRQAPGKGLEWVSSLTPNGGSTYYADSVKGRFTISRDNAKNTLYLQMNSLKPEDTALYYCAKNSYYGAMDYWGQGTQVTVSSHHHHHH 0.78

Read off the recorded maximal absorbance value for SVG06L (VHH) VHH: QVQLQESGGALVQPGGSLRLSCAASGFPFSAYDMTWVRQAPGQGLEWVSTIHKSGGITTYADSVKGRFTISRDNAKNTLYLQMNNLESEDTAVYYCAKALRAHNSDYVGRNALGSWGEGTLVTVSS 0.14

Read off the recorded maximal absorbance value for SVT06L (VHH) VHH: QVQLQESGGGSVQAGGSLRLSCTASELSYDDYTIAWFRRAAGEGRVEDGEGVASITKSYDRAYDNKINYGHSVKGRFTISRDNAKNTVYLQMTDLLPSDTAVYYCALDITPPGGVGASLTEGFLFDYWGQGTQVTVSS 0.35

Read off the recorded maximal absorbance value for SVT15L-3FW4M (VHH) VHH: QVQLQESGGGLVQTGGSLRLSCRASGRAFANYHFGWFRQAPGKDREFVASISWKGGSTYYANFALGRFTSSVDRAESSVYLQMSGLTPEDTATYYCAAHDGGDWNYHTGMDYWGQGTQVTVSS 0.2

Read off the recorded maximal absorbance value for SVT15-3FW4M-GS2-SVA12M2-H6 (bispecific antibody) QVQLQESGGGLVQTGGSLRLSCRASGRAFANYHFGWFRQAPGKDREFVASISWKGGSTYYANFALGRFTSSVDRAESSVYLQMSGLTPEDTATYYCAAHDGGDWNYHTGMDYWGQGTQVTVSSGGGGSGGGSEVQLVESGGGLVQAGGSLRLSCAASGRTFSYYPMAWFRQAPGQEREFVAAIIGADTTYYADSLKGRFTISRDNAKNMVYLQMNSLKPEDTAVYYCAARNTYWSDVYYREGQYTNWGQGTQVTVSSHHHHHH 0.64

Read off the recorded maximal absorbance value for SVT15-3FW4M-GS2-SVG06M4-H6 (bispecific antibody) QVQLQESGGGLVQTGGSLRLSCRASGRAFANYHFGWFRQAPGKDREFVASISWKGGSTYYANFALGRFTSSVDRAESSVYLQMSGLTPEDTATYYCAAHDGGDWNYHTGMDYWGQGTQVTVSSGGGGSGGGSEVQLVESGGALVQPGGSLRLSCAASGFPFSAYDMTWVRQAPGQGLEWVSTIHKSGGITTYADSVKGRFTISRDNAKNTLYLQMNNLESEDTAVYYCAKALRAHNSDYVGRNALGSWGQGTQVTVSSHHHHHH 0.29

Read off the recorded maximal absorbance value for SVT06-GS2-SVA12M2-H6 (bispecific antibody) QVQLQESGGGSVQAGGSLRLSCTASELSYDDYTIAWFRRAAGEGRVEDGEGVASITKSYDRAYDNKINYGHSVKGRFTISRDNAKNTVYLQMTDLLPSDTAVYYCALDITPPGGVGASLTEGFLFDYWGQGTQVTVSSGGGGSGGGSEVQLVESGGGLVQAGGSLRLSCAASGRTFSYYPMAWFRQAPGQEREFVAAIIGADTTYYADSLKGRFTISRDNAKNMVYLQMNSLKPEDTAVYYCAARNTYWSDVYYREGQYTNWGQGTQVTVSSHHHHHH 0.66

Each recorded value in this set is attributed to patent US20240376185A1.
